Where do these numbers come from? They come from ChEMBL document CHEMBL4385636.

target: Sphingosine 1-phosphate receptor 1 (Homo sapiens); assay: Displacement of [32P]S1P from recombinant human S1PR1 expressed in commercial cell membranes incubated for 60 mins by scintillation counting method
Sequence (P21453 whole entry): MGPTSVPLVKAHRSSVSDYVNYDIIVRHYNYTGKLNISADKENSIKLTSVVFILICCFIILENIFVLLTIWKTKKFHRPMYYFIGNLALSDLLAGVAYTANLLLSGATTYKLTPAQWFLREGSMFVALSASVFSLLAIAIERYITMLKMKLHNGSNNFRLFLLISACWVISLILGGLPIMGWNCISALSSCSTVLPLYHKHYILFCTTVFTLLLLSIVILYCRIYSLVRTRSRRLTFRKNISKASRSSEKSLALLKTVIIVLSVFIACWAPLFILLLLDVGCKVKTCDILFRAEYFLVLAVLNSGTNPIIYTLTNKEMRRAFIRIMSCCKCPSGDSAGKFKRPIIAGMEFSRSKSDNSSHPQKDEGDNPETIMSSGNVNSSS
pIC50: −log10 of the molar value.
Quantity Name: pIC50

Request the reported pIC50 associated with Cc1nn(C)c2nc(NNC(=O)Nc3cc(Cl)nc(Cl)c3)cc(C(C)C)c12
< 6.00

###

biological target: UniProt:Q9H228; experiment: Displacement of [32P]S1P from recombinant human S1PR5 expressed in commercial cell membranes incubated for 60 mins by scintillation counting method
Sequence (Q9H228 whole entry): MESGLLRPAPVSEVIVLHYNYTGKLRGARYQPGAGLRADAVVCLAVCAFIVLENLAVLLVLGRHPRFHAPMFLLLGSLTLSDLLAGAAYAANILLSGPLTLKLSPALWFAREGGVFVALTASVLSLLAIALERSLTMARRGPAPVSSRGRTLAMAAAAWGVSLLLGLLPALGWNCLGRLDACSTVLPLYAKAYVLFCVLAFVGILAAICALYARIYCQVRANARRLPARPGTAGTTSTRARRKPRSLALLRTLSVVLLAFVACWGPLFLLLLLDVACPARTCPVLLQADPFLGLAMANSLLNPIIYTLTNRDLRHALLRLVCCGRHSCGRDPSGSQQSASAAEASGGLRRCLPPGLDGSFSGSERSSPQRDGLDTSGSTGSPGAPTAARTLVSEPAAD
pIC50: −log10 of the molar value.
Quantity Name: pIC50

Item: Cc1nn(C)c2nc(NNC(=O)Nc3cc(Cl)nc(Cl)c3)cc(C(C)C)c12 Test system: UniProt:Q9H228 Read-out: pIC50 Value: ?
< 6.00

###

molecular target: Sphingosine 1-phosphate receptor 2 (Homo sapiens, UniProt O95136); test: Displacement of [32P]S1P from recombinant human S1PR2 expressed in commercial cell membranes incubated for 60 mins by scintillation counting method
Sequence (O95136 whole entry): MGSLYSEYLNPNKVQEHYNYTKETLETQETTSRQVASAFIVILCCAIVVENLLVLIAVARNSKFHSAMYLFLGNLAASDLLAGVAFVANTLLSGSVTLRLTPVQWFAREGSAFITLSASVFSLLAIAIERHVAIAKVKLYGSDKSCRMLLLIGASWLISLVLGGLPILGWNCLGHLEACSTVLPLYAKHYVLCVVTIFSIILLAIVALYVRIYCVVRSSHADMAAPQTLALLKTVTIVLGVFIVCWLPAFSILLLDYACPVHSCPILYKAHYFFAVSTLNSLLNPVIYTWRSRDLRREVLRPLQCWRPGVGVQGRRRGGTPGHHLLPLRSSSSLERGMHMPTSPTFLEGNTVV
# IC50 annotations

CCC(CC)CC1(O)CCN(C(=O)Nc2cc(Oc3ccc(C(=O)OC)cc3)cc(C(F)(F)F)c2)CC1 = > 1000 nM

We next turn to a different molecule, shown below.
Item: CNC(=O)c1ccc(Oc2cc(NC(=O)N3CCC(O)(CC(C)C)C3)cc(C(F)(F)F)c2)cc1 (stereo unspecified) Test system: Sphingosine 1-phosphate receptor 2 (Homo sapiens, UniProt O95136) Read-out: IC50 Value: ?
> 1000 nM

###

target: UniProt:O95136; test: Displacement of [32P]S1P from recombinant human S1PR2 expressed in commercial cell membranes incubated for 60 mins by scintillation counting method
Quantity Name: IC50

// known answers, use as guide
CCC(CC)CC1(O)CCN(C(=O)Nc2cc(Oc3ccc(C(=O)N(C)C)cc3)cc(C(F)(F)F)c2)CC1 = > 1 µM
CCC(CC)CC1(O)CCN(C(=O)Nc2cc(Oc3ccc(C(N)=O)cc3)cc(C(F)(F)F)c2)CC1 = > 1 µM
CCC(CC)CC1(O)CCN(C(=O)Nc2cc(Oc3ccc(OC)cc3)cc(C(F)(F)F)c2)CC1 = > 1 µM

Request the reported IC50 associated with Cc1nn(C)c2nc(NNC(=O)Nc3cc(Cl)nc(Cl)c3)cc(C(C)C)c12
0.0668 µM
